tested target: Ecm22 (UniProt Q05958)
Sequence: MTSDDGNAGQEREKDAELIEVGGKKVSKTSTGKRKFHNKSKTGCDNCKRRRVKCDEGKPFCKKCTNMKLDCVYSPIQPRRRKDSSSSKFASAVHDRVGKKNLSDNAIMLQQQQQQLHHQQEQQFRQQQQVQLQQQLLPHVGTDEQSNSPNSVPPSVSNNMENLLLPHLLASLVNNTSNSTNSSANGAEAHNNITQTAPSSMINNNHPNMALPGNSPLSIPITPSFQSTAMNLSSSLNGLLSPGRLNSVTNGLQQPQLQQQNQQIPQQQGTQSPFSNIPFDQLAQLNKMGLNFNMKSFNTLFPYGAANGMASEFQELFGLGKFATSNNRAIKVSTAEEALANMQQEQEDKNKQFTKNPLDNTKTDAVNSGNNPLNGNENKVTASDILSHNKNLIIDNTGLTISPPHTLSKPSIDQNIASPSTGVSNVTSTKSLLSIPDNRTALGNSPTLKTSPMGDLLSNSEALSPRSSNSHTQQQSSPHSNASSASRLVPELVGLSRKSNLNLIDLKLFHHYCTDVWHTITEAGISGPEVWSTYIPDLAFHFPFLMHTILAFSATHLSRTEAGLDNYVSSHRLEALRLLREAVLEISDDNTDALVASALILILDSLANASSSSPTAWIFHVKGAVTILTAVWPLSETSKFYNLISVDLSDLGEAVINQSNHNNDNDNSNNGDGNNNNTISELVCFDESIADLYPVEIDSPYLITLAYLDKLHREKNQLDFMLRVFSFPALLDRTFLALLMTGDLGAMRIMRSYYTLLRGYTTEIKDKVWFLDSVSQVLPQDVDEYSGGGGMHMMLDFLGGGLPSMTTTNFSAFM
test: PBM E-score (8-mer binding enrichment) (E-score (-0.5 to 0.5)); higher = stronger / more preferred TF binding
condition info: protein concentration: 200 nM; construct: GST-full length
In all, about 33,000 sequences were measured (“E-score (-0.5 to 0.5)”: median about -0.041, highest 2% from about 0.37 on). The entries come from a sample that favours the highest values as a whole.

sequence record | PBM E-score
CTGGGAAC | 0.132
AATCGTGC | 0.221
AATCGTCC | 0.0602
ACCGGGCG | 0.0784
GGTGTGAC | -0.177
AGAAGACA | 0.011
AATCGTAC | 0.458
CCAGTCAA | -0.166
ATTGCGCG | 0.148
TCGTACAA | 0.49
AATCGTTG | 0.165
CGTGGATC | -0.0292
GTAGGGGA | -0.206
AAGTACCG | 0.152
ATTTACGA | 0.453
CACTGTCG | 0.109
AACGAAGG | 0.398
ACATTCGT | 0.37
GTTTACTA | 0.182
ACCGAAGG | 0.107
ATCGTGGG | -0.0631
CTTTACGA | 0.464
CCCCAGCA | -0.237
CATCGTAG | 0.261
ACTCCAAC | -0.175
AGGAGAAA | -0.281
CTGCACTC | -0.104
CGTTTCGA | 0.202
ATTTACGC | 0.0401
GAAATTGC | 0.0049
GTTTACGA | 0.46
CCTTCCGC | -0.184
CATTCCTC | 0.0616
AGACTTAT | -0.104
GTTAGGGA | 0.0493
CATCGTTA | 0.259
ACAGAGCG | 0.00751
AATTACGA | 0.361
ATGGTCTG | -0.0872
TAGGACGA | -0.216
AACCTTTC | -0.0282
CAAATGCC | -0.27
AAGCCATA | -0.0528
ATTTACGG | 0.31
CATCGTAC | 0.458
GTTTACAA | 0.19

====

tested target: Ecm22 (UniProt Q05958)
Sequence: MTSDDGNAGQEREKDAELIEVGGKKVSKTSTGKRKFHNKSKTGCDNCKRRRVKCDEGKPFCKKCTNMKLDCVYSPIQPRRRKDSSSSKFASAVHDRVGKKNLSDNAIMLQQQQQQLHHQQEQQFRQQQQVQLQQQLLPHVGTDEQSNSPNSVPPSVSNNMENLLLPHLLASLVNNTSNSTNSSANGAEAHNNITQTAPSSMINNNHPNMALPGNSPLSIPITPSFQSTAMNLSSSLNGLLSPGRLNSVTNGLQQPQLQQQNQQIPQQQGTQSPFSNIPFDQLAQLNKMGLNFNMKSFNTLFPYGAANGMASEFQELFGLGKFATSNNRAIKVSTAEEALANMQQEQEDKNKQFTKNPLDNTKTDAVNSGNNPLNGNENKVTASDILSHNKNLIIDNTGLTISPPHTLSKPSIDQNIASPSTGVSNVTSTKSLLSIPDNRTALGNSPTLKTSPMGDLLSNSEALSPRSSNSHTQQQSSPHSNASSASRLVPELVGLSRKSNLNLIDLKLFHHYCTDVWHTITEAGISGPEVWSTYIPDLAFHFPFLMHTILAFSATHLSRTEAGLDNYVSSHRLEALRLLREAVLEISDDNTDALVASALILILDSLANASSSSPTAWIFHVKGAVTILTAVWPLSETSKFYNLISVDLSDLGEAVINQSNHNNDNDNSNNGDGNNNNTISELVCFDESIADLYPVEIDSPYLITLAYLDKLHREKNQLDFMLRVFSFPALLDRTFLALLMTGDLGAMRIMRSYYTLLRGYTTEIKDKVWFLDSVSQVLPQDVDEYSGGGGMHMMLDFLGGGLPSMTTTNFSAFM
test: PBM E-score (8-mer binding enrichment) (E-score (-0.5 to 0.5)); higher = stronger / more preferred TF binding
condition info: protein concentration: 200 nM; construct: GST-full length
Over roughly 33,000 sequences, “E-score (-0.5 to 0.5)” has its median near -0.041; the highest 2% begin near 0.37. This excerpt belongs to a sample that is enriched for the highest values.

sequence record | tested target | PBM E-score
TGTACCAA | Ecm22 (UniProt Q05958) | 0.036
ACGAGCCT | Ecm22 (UniProt Q05958) | 0.407
AGGTACGG | Ecm22 (UniProt Q05958) | 0.424
CGCGGTAA | Ecm22 (UniProt Q05958) | 0.191
CCGAGCCG | Ecm22 (UniProt Q05958) | 0.227
AGGTACGC | Ecm22 (UniProt Q05958) | 0.217
ATATACGA | Ecm22 (UniProt Q05958) | 0.49
CCGACCAA | Ecm22 (UniProt Q05958) | 0.105
ACCGTTCG | Ecm22 (UniProt Q05958) | 0.229
AGTTTGCC | Ecm22 (UniProt Q05958) | -0.117
CACGTATC | Ecm22 (UniProt Q05958) | 0.132
ATATACTG | Ecm22 (UniProt Q05958) | 0.0789
CCCATTAC | Ecm22 (UniProt Q05958) | -0.101
CGGTACCA | Ecm22 (UniProt Q05958) | -0.0083
TCGAGCCA | Ecm22 (UniProt Q05958) | -0.126
CGGTACGC | Ecm22 (UniProt Q05958) | 0.315
CATTGTCG | Ecm22 (UniProt Q05958) | 0.0896
AGGAGCCT | Ecm22 (UniProt Q05958) | -0.308
GCCGTTCA | Ecm22 (UniProt Q05958) | 0.229
CGCGCAAA | Ecm22 (UniProt Q05958) | 0.188
CATACCAG | Ecm22 (UniProt Q05958) | -0.0569
CGTACCAA | Ecm22 (UniProt Q05958) | 0.444
GACGCCTA | Ecm22 (UniProt Q05958) | -0.221
ACTTTAGG | Ecm22 (UniProt Q05958) | -0.0481
GCCCCCCA | Ecm22 (UniProt Q05958) | -0.365
ACGAGCCA | Ecm22 (UniProt Q05958) | 0.404
CGTACCAG | Ecm22 (UniProt Q05958) | 0.397
ATATACAA | Ecm22 (UniProt Q05958) | 0.0401
CCGAGCCA | Ecm22 (UniProt Q05958) | 0.138
ATATACCG | Ecm22 (UniProt Q05958) | 0.21
ACCGTGCG | Ecm22 (UniProt Q05958) | 0.161
AGCAATTA | Ecm22 (UniProt Q05958) | -0.107
CTATACGC | Ecm22 (UniProt Q05958) | 0.403
CTGCGAGC | Ecm22 (UniProt Q05958) | 0.0428
ATCGTATG | Ecm22 (UniProt Q05958) | 0.438
GCCGTTCC | Ecm22 (UniProt Q05958) | 0.444
ACCGTTCC | Ecm22 (UniProt Q05958) | 0.434
AGTACCAG | Ecm22 (UniProt Q05958) | -0.14
GACGTTCC | Ecm22 (UniProt Q05958) | 0.141
CCCGTTCA | Ecm22 (UniProt Q05958) | 0.267
ACCGTTCT | Ecm22 (UniProt Q05958) | 0.135
ATATACGC | Ecm22 (UniProt Q05958) | 0.299
AGTCCGAA | Ecm22 (UniProt Q05958) | 0.0505
AGTACCAA | Ecm22 (UniProt Q05958) | -0.119
CCACCCGC | Ecm22 (UniProt Q05958) | -0.0883
ATCGTGTA | Ecm22 (UniProt Q05958) | 0.25
